The reported measurements were obtained from ChEMBL document CHEMBL1938269.

test: Antiproliferative activity against human BCG823 cells after 48 hrs by MTT assay; assay type: functional, cell-based; details: BCG823, 48 h
pIC50: −log10 of the molar value.
Classify as follows. Reported pIC50 greater than or equal to 5: class 1. Reported pIC50 below: class 0.

- Test Smiles: "COc1c(OCCCN2CCOCC2)cc2oc(-c3ccccc3)cc(=O)c2c1O"
  Class Name: "class 0"
- Test Smiles: "COc1c(OCCCCN2CCN(C)CC2)cc2oc(-c3ccccc3)cc(=O)c2c1O"
  Class Name: "class 0"
- Test Smiles: "CCN(CC)CCCCOc1cc2oc(-c3ccccc3)cc(=O)c2c(O)c1OC"
  Class Name: "class 1"
- Test Smiles: "COc1c(OCCN2CCOCC2)cc2oc(-c3ccccc3)cc(=O)c2c1O"
  Class Name: "class 0"

Kindly determine if pIC50 recorded for COc1c(OCCN2CCCCC2)cc2oc(-c3ccccc3)cc(=O)c2c1O is above or exactly 5.
class 0
